The reported measurements were obtained from the supplement of paper PMC10307832.

Catalogue of compounds with associated relative viability
Tested on: NCI-H520
procedureText: relative viability (nuclei count vs DMSO), 5 days (fraction); higher = more cells survive
conditions: first compound 0.6325 µM
# print the numeric value only

Known results for compounds:
COCC1(CO)C(=O)C2CCN1CC2 (centres undefined) [PRIMA-1MET] + COc1cc2c(Oc3ccc(NC(=O)C4(C(=O)Nc5ccc(F)cc5)CC4)cc3F)ccnc2cc1OCCCN1CCOCC1 [Foretinib] (partner 0.25 µM) :: 0.62
COCC1(CO)C(=O)C2CCN1CC2 (centres undefined) [PRIMA-1MET] + N=C(N)NC(=N)NCCc1ccccc1 [Phenformin] (partner 250 µM) :: 0.501
COCC1(CO)C(=O)C2CCN1CC2 (centres undefined) [PRIMA-1MET] + CC1(C)CCC(c2ccc(Cl)cc2)=C(CN2CCN(c3ccc(C(=O)NS(=O)(=O)c4ccc(N[C@H](CCN5CCOCC5)CSc5ccccc5)c(S(=O)(=O)C(F)(F)F)c4)cc3)CC2)C1 [Navitoclax] (partner 0.5 µM) :: 1.06

Field: next compound
Exam item: Quote relative viability reported for COCC1(CO)C(=O)C2CCN1CC2 (centres undefined) [PRIMA-1MET] + CC(C)C[C@H](NC(=O)[C@H](Cc1ccccc1)NC(=O)c1cnccn1)B(O)O [Bortezomib] (partner 0.002 µM) please.
Marked response: 0.503
